experiment: Quantitative High-Throughput drug screen in 47 multiple myeloma cell lines against the NCATS MIPE library collection: PE2_PLB cell viability assay (AID 1919869); conditions: PE2_PLB myeloma cells viability, ATP luminescence, 48 h; series mostly up to 45.8 µM; note: nearly all actives have a fitted effect of over 35% in size
Inconclusive results are not listed. Activity calls are given as the source filed them. Calls come from the whole dose curve; as a rule, active = well fitted cell-killing curve with a large enough effect; inconclusive = small, poorly fitted or top-dose-only effect, or effect the other way; inactive = no such curve, though single readings can be large or run the other way.
Just give me one of these, please: active, inactive

// return assay outcome for CCNC(=O)C[C@@H]1N=C(c2ccc(Cl)cc2)c2cc(OC)ccc2-n2c(C)nnc21
active

// return assay outcome for C[C@]12CCC(=O)C(O)=C1CC[C@@H]1[C@H]3CCC(=O)[C@@]3(C)CC[C@@H]12
inactive

// return assay outcome for CC[C@@H]1[C@@H](C)O[C@@](O)([C@@H](C)[C@H](O)[C@H](C)[C@H]2OC(=O)C=CC=C[C@@H](C)[C@@H]([C@@H](C)[C@@H](O)[C@H](C)[C@@]3(O)C[C@H](O[C@H]4C[C@H](O)[C@H](O)[C@H](C)O4)[C@H](CC)[C@@H](C)O3)OC(=O)C=CC=C[C@@H]2C)C[C@H]1O[C@H]1C[C@H](O)[C@H](O)[C@H](C)O1
active

// return assay outcome for CCN(CC)C(=O)c1ccc(C2=CC3(CCNCC3)Oc3cccc(O)c32)cc1
inactive

// return assay outcome for Clc1ccccc1C(c1ccccc1)(c1ccccc1)n1cccn1
inactive

// return assay outcome for O=[N+]([O-])c1ncc[nH]1
inactive

// return assay outcome for CC(=O)N(C)c1cccc(-c2ccnc3c(C(=O)c4cccs4)cnn23)c1
inactive

// return assay outcome for C[C@@]12OC(=O)[C@]1([C@@H](O)[C@@H]1C=CCCC1)NC(=O)[C@H]2CCCl
active

// return assay outcome for N#C[C@H](O[C@@H]1O[C@H](CO[C@@H]2O[C@H](CO)[C@H](O)[C@H](O)[C@H]2O)[C@H](O)[C@H](O)[C@H]1O)c1ccccc1
active

// return assay outcome for CC(=Cc1csc(C)n1)[C@@H]1C[C@H]2O[C@]2(C)CCC[C@H](C)[C@@H](O)[C@@H](C)C(=O)C(C)(C)[C@@H](O)CC(=O)O1
inactive

// return assay outcome for O=c1[nH]c2ccccc2n1C1CCN(Cc2ccc(-c3[nH]c4cc5ncnc5cc4nc3-c3ccccc3)cc2)CC1
active

// return assay outcome for CCCC[N+]1(C)[C@H]2CC(OC(=O)[C@H](CO)c3ccccc3)C[C@H]1[C@H]1O[C@H]12 (stereo partly drawn)
inactive

// return assay outcome for C[C@H]1CCCC=CC2C[C@H](O)C[C@@H]2[C@H](O)C=CC(=O)O1 (stereo partly drawn)
inactive

// return assay outcome for CCOC(=O)c1cncn1[C@H](C)c1ccccc1
inactive

// return assay outcome for Cc1c(C(=O)Nc2cccc(C(F)(F)F)c2)cc(-c2ccccc2)n1CCCN1CCOCC1
active

// return assay outcome for COc1ccc(N(C(=O)Oc2c(C)cccc2C)c2ccnc(Nc3ccc(N4CCN(C)CC4)cc3)n2)c(OC)c1
active

// return assay outcome for CC(C)[C@]12O[C@@H]1[C@@H]1O[C@]13[C@]1(O[C@H]1C[C@@H]1C4=C(CC[C@@]13C)C(=O)OC4)[C@H]2O
inactive

// return assay outcome for CC1(N2CCC(n3c([C@@H]4CCCNC4)nc4ccccc43)CC2)CCCCCCC1
active

// return assay outcome for C=CCON=C(C[C@H]1O[C@@H]2O[C@]3(C)CC[C@@H]4[C@H](C)CC[C@@H]([C@H]1C)[C@@]24OO3)[C@H]1O[C@@H]2O[C@]3(C)CC[C@H]4[C@H](C)CC[C@@H]([C@@H]1C)[C@@]24OO3
active

// return assay outcome for CC1=C(O)C(=O)C=C2C1=CC=C1[C@@]2(C)CC[C@@]2(C)[C@@H]3C[C@](C)(C(=O)O)CC[C@]3(C)CC[C@]12C
active

// return assay outcome for COc1ccc2c(c1)[C@]13CCCCC1C(C2)N(C)CC3 (stereo partly drawn)
inactive

// return assay outcome for COc1ccc(C(=O)c2c(C)n(CCN3CCOCC3)c3cc(I)ccc23)cc1
active

// return assay outcome for CC(=Cc1csc(C)n1)[C@@H]1C[C@H]2O[C@@H]2CCC[C@H](C)[C@@H](O)[C@@H](C)C(=O)C(C)(C)[C@@H](O)CC(=O)O1
inactive

// return assay outcome for C[C@](O)(COc1ccc(C#N)cc1)C(=O)Nc1ccc(C#N)c(C(F)(F)F)c1
active

// return assay outcome for C[C@]12Cc3cn[nH]c3C[C@@H]1CC[C@@H]1[C@H]2CC[C@@]2(C)[C@H]1CC[C@]2(C)O
inactive

// return assay outcome for O=S(=O)(F)Cc1ccccc1
active

// return assay outcome for CC[C@@]1(O)C(=O)OCc2c1cc1n(c2=O)Cc2cc3ccccc3nc2-1
active

// return assay outcome for COc1ccc2c(c[n+](C)c3c4cc5c(cc4ccc23)OCO5)c1OC
active

// return assay outcome for O=C1CCC[C@@H]2[C@H]3CCCN4CCC[C@@H](CN12)[C@@H]34
inactive

// return assay outcome for C[C@@H]1CC[C@@]2(OC1)O[C@H]1C[C@H]3[C@@H]4CC=C5C[C@@H](O[C@@H]6O[C@H](CO)[C@@H](O[C@@H]7O[C@@H](C)[C@H](O)[C@@H](O)[C@@H]7O)[C@H](O)[C@@H]6O[C@@H]6O[C@@H](C)[C@H](O)[C@@H](O)[C@@H]6O)CC[C@]5(C)[C@@H]4CC[C@]3(C)[C@@H]1[C@H]2C
active

// return assay outcome for CN[C@@H]1Cc2cccc3[nH]c(=O)n(c23)C1
inactive

// return assay outcome for CC(C)N(CCNC(=O)CN1CCCC1=O)C(C)C
inactive

// return assay outcome for NC1=NC(=O)N2CC12 (stereo not drawn)
active

Recorded values, source PubChem BioAssay (NCATS).
